B1: POU domain, class 4, transcription factor 1, residues 266 to 347; numbered along this chain, Q01851 (parent)
chain: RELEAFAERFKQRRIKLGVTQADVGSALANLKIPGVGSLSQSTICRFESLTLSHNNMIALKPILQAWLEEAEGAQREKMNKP

Variants of: B1
protocol: abundance fitness (aPCA) (normalised: wild type 0, dead -1); higher = more abundant; growth selection in yeast, the domain comes from the species named
reportedConditions: Homo sapiens
Provide the reported abundance fitness of each item.
Enter the number alone.

Ask: Fill in the blank: the reported abundance fitness of R1N is ____.
Reply: 0.02

Ask: Look at this variant and give its reported abundance fitness. H54R
Reply: 0.053

Ask: Could you share which abundance fitness value was measured for I58L ?
Reply: -0.031

Ask: Reported abundance fitness, variant T51N : ____
Reply: -0.042

Ask: State the recorded abundance fitness for this entry: A5K
Reply: 0.042

Ask: Item E77V has what recorded abundance fitness?
Reply: -0.005

Ask: Dear colleague, I am looking for the recorded abundance fitness of the following variant: A5H
Reply: -0.063

Ask: Please give the measured abundance fitness for this variant: L17Y
Reply: -0.33

Ask: Can you share its abundance fitness? I mean this variant: H54T
Reply: 0.08

Ask: Which measured abundance fitness value corresponds to A5M ?
Reply: 0.016

Ask: Need abundance fitness, item M79T
Reply: -0.021

Ask: Item Q65M has what recorded abundance fitness?
Reply: -0.056

Ask: Given Q75H , state its recorded abundance fitness.
Reply: 0.041

Ask: What value of measured abundance fitness is listed for Q21N ?
Reply: -0.516

Ask: // lookup abundance fitness for A7E
Reply: -0.884

Ask: Any idea what its abundance fitness is? The variant is I33K
Reply: -0.203

Ask: Give the measured abundance fitness of A29E .
Reply: 0.036

Ask: Look at this variant and give its reported abundance fitness. Q75C
Reply: -0.015

Ask: Given the variant L50I , what is its reported abundance fitness?
Reply: -0.13

Ask: Would you kindly share the measured abundance fitness for G37P ?
Reply: -0.016

Ask: // query abundance fitness value for entry R14N
Reply: -0.923

Ask: Need abundance fitness, item P62E
Reply: -0.413
